Recorded values, source patent US7858611B2.

# System: human neural stem cells (hNSCs)
# TEST SUMMARY: Neuronal differentiation of human neural stem cells (TUJ-1 antibody staining)
# Format: cell-based
# APPLIED CONDITIONS: Homo sapiens, Neural stem cell, agent alone; FIG. 6-9; percentage of neuronal positive control, basal media values subtracted; read-out: EC50 for neuronal differentiation
Listed next: entries and their corresponding EC50.

The following compounds have reported results that may help.
Short answer on human neural stem cells (hNSCs) for CCCc1nc2c(C)cc(-c3nc4ccccc4n3C)cc2n1Cc1ccc(-c2ccccc2C(=O)O)cc1 [telmisartan] , EC50: ~30 nM

Field EC50 (human neural stem cells (hNSCs)), entry CCOC(=O)C(CCc1ccccc1)NC(C)C(=O)N1C(C(=O)O)CC2CCCCC21 (stereo not shown) [trandolapril] : ~35000 nM

EC50 on human neural stem cells (hNSCs) for CCOc1nc2cccc(C(=O)O)c2n1Cc1ccc(-c2ccccc2-c2nnn[nH]2)cc1 [candesartan] is ~840 nM

Continuing:
Entry CCOC(=O)[C@H](CCc1ccccc1)N[C@H]1CCc2ccccc2N(CC(=O)O)C1=O [benazepril] , human neural stem cells (hNSCs) data, EC50 value: 3300 nM
